- Tested Target: LgTrip 3546 (with His tag; SEQ ID NO: 51)
- Sequence (chain, as listed by the source): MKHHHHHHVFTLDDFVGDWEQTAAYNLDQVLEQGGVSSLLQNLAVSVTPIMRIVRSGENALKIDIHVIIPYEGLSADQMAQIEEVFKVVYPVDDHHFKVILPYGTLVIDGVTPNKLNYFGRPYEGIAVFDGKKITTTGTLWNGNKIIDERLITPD
- Protocol Details: luminescence complementation; SmTrip9 Kd
- Assay Context: modification not given
Mark each entry Met if its Kd sits below 200 nM, and Not met for all others.

Record excerpt, results attached:
>>> print(df.to_string())
                binder  label_value
0  DKMLFKVTIQKYK [783]      Not met
1  DKLLFTVTIQKWK [756]      Not met
2  DKMLFRVTINKWK [784]      Not met
3  DKMLFRVTIEKWK [742]      Not met
4  DKLLFTVTIGKYK [794]      Not met
5  DKMLFKVTIEKYK [785]      Not met

(Q) Dear reviewer, please state whether KKLLFRVTIQKWK [761] has Kd strictly beneath 200 nM.
(A) Met

(Q) Now consider GRMLFRVTINRWR [768] .
(A) Met

(Q) Here is the next binder: DKLLFTVTIQKYK [757]
(A) Met

(Q) Similarly, DKLLFTVTINKWK [799] ?
(A) Not met
